The reported numbers originate from ChEMBL document CHEMBL2040722.

Test system: MCF7
Assay Info: Antiproliferative activity against human MCF7 cells after 48 hrs by CCK-8 assay
Type: functional, cell-based
Condition Parameters: MCF7, 48 h
Param label: returns met when IC50 < 3 µg/mL, returns not met otherwise, including exact equality.

Study these solved cases before continuing.
{"columns": ["Smiles Str", "Category"],
 "data": [
  ["Cc1[nH]c2ccccc2c1C1=C(Br)C(=O)C(c2c(C)[nH]c3ccccc23)=C(Br)C1=O", "not met"],
  ["Cc1[nH]c2ccccc2c1C1=C(Cl)C(=O)C(Cl)=C(c2c(-c3ccccc3)[nH]c3ccccc23)C1=O", "met"],
  ["COc1ccc2[nH]c(C)c(C3=C(Cl)C(=O)C(c4c(-c5ccc(C)cc5)[nH]c5ccccc45)=C(Cl)C3=O)c2c1", "not met"],
  ["COc1ccc2[nH]c(C)c(C3=C(Br)C(=O)C(Br)=C(c4c(C)[nH]c5ccc(OC)cc45)C3=O)c2c1", "not met"],
  ["COc1ccc2[nH]c(C)c(C3=C(Br)C(=O)C(c4c(C)[nH]c5ccccc45)=C(Br)C3=O)c2c1", "not met"]
]}

Q) # strict comparison: is reported IC50 < 3 µg/mL? input = COc1ccc2[nH]c(C)c(C3=C(Br)C(=O)C(c4c(-c5ccc(C)cc5)[nH]c5ccccc45)=C(Br)C3=O)c2c1
A) met

Q) # strict comparison: is reported IC50 < 3 µg/mL? input = Cc1ccc(-c2[nH]c3ccccc3c2C2=C(Br)C(=O)C(Br)=C(c3c(C)[nH]c4ccccc34)C2=O)cc1
A) not met

Q) # strict comparison: is reported IC50 < 3 µg/mL? input = Cc1[nH]c2ccccc2c1C1=C(Br)C(=O)C(Br)=C(c2c(C)[nH]c3ccccc23)C1=O
A) not met

====

This listing pairs compounds with measured IC50.
System: MDA-MB-231
Assay Info: Antiproliferative activity against human MDA-MB-231 cells after 48 hrs by CCK-8 assay
Format: functional, cell-based
Condition Parameters: MDA-MB-231, 48 h
Report the figure in µg/mL without appending any unit label.

{"columns": ["Smiles Str", "Units Symbol", "IC50"],
 "data": [
  ["COc1ccc2[nH]c(C)c(C3=C(Br)C(=O)C(c4c(-c5ccccc5)[nH]c5ccccc45)=C(Br)C3=O)c2c1", "µg/mL", 5.02],
  ["Cc1[nH]c2ccccc2c1C1=C(Br)C(=O)C(Br)=C(c2c(-c3ccccc3)[nH]c3ccccc23)C1=O", "µg/mL", 4.33]
]}

Q) Given the entry Cc1ccc(-c2[nH]c3ccccc3c2C2=C(Cl)C(=O)C(Cl)=C(c3c(C)[nH]c4ccccc34)C2=O)cc1 , report its measured IC50.
A) 5.77

Q) Given the entry COc1ccc2[nH]c(C)c(C3=C(Br)C(=O)C(Br)=C(c4c(C)[nH]c5ccc(OC)cc45)C3=O)c2c1 , report its measured IC50.
A) 8.43

Q) Given the entry Cc1ccc(-c2[nH]c3ccccc3c2C2=C(Cl)C(=O)C(c3c(C)[nH]c4ccccc34)=C(Cl)C2=O)cc1 , report its measured IC50.
A) 4.21

Q) Given the entry Cc1[nH]c2ccccc2c1C1=C(Br)C(=O)C(c2c(-c3ccccc3)[nH]c3ccccc23)=C(Br)C1=O , report its measured IC50.
A) 5.64

Q) Given the entry COc1ccc2[nH]c(C)c(C3=C(Br)C(=O)C(Br)=C(c4c(-c5ccccc5)[nH]c5ccccc45)C3=O)c2c1 , report its measured IC50.
A) 7.67
